Numbers sourced from patent US20220289728A1.

The entries below are paired with their reported IC50.
- SYSTEM_UNDER_TEST: human TREX2 (residues M44-A279) (Homo sapiens)
- Construct: human TREX2 (residues M44-A279, expressed in E. coli); His-TEV (His tag with TEV site) (N)
- Sequence (Q9BQ50 whole entry, the tested form may be a part): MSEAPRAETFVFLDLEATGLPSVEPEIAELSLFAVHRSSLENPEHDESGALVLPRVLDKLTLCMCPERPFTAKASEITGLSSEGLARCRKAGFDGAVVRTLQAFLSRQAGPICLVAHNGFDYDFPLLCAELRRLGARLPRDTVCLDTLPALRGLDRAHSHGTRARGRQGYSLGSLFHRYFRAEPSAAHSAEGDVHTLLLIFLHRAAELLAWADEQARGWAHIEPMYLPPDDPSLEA
- MEASUREMENT_PROTOCOL: TREX2 Biochemical Assay (fluorescence, dsDNA substrate degradation)
- CONDITION_LABEL: 2.5 nM TREX2, 60 nM dsDNA substrate, 25 minutes at room temperature

IC50 value, target or system human TREX2 (residues M44-A279) (Homo sapiens), for Cc1cccc(Cl)c1C(c1ccccn1)N(C)c1nc(C(=O)Nc2cnoc2)c(O)c(=O)n1C (single isomer, unassigned) [Example 62] : < 1000 nM

The reported human TREX2 (residues M44-A279) (Homo sapiens) IC50 of "CN(c1nc(C(=O)Nc2cnoc2)c(O)c(=O)n1C)C(C)(c1ccccc1)c1ccccc1" is 1000 to 10000 nM

Bench note, human TREX2 (residues M44-A279) (Homo sapiens): "CN(Cc1ccccc1-c1cccc(Cl)c1)c1nc(C(=O)Nc2cnoc2)c(O)c(=O)n1C" , IC50 reads 1000 to 10000 nM

Sample CN(c1nc(C(=O)Nc2cnoc2)c(O)c(=O)n1C)C(c1ccccc1Cl)C1CC1 (single isomer, unassigned) [Example 68] , system: human TREX2 (residues M44-A279) (Homo sapiens). Its IC50 is < 1000 nM

Form field, IC50 with human TREX2 (residues M44-A279) (Homo sapiens), item CCN(c1nc(C(=O)Nc2cnoc2)c(O)c(=O)n1C)C(c1ccccc1)c1ccccc1Cl (single isomer, unassigned) [Example 92] : < 1000 nM

Field IC50 (human TREX2 (residues M44-A279) (Homo sapiens)), entry "CN(Cc1cnn(C)c1)c1nc(C(=O)Nc2cnoc2)c(O)c(=O)n1C" : 10000 to 100000 nM

Entry "CN(Cc1ccc2ccccc2c1)c1nc(C(=O)Nc2cnoc2)c(O)c(=O)n1C" , tested on human TREX2 (residues M44-A279) (Homo sapiens), has a reported IC50 of 1000 to 10000 nM

----------
- SYSTEM_UNDER_TEST: human TREX2 (residues M44-A279) (Homo sapiens)
- Construct: human TREX2 (residues M44-A279, expressed in E. coli); His-TEV (His tag with TEV site) (N)
- MEASUREMENT_PROTOCOL: TREX2 Biochemical Assay (fluorescence, dsDNA substrate degradation)
- CONDITION_LABEL: 2.5 nM TREX2, 60 nM dsDNA substrate, 25 minutes at room temperature
ENDPOINT: IC50

The examples below pair each entry with its known result.
• C[C@H](c1ccccc1)N(C)c1nc(C(=O)Nc2cnoc2)c(O)c(=O)n1C = < 1000 nM
• CN(Cc1cccnc1)c1nc(C(=O)Nc2cnoc2)c(O)c(=O)n1C = 1000 to 10000 nM
• CN(c1nc(C(=O)Nc2cnoc2)c(O)c(=O)n1C)C(c1ccccc1)c1ccccn1 (single isomer, unassigned) [Example 41] = < 1000 nM
• CN(Cc1ccccc1C(F)(F)F)c1nc(C(=O)Nc2cnoc2)c(O)c(=O)n1C = 1000 to 10000 nM
• CC(c1c(Cl)cccc1Cl)N(C)c1nc(C(=O)Nc2cnoc2)c(O)c(=O)n1C (single isomer, unassigned) [Example 70] = < 1000 nM

Here is the next item to consider.
molecule CN1CCC(C(c2ccccc2)N(C)c2nc(C(=O)Nc3cnoc3)c(O)c(=O)n2C)CC1 (stereo not drawn) , IC50 observed: 10000 to 100000 nM

----------
- SYSTEM_UNDER_TEST: full length human TREX1 (Homo sapiens)
- Construct: N-terminally His-Tev tagged full length human TREX1; His-TEV (His tag with TEV site) (N)
- Sequence (Q9NSU2 1-314): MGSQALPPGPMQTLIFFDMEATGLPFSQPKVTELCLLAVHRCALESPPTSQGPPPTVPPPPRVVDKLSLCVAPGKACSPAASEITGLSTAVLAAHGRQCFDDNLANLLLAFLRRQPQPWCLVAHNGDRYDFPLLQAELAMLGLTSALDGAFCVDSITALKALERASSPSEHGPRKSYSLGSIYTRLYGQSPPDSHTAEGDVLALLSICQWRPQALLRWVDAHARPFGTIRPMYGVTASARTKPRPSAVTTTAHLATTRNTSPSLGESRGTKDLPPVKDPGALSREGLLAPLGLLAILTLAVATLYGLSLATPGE
- MEASUREMENT_PROTOCOL: TREX1 Biochemical Assay (fluorescence, dsDNA substrate degradation)
- CONDITION_LABEL: 150 pM TREX1, 60 nM dsDNA substrate, 25 minutes at room temperature
ENDPOINT: IC50

* CN(c1nc(C(=O)Nc2cnoc2)c(O)c(=O)n1C)C(c1ccccc1)c1cc(F)ccc1Cl (single isomer, unassigned) [Example 88] | < 0.1 µM
* CN(C)C(=O)c1cccc(CN(C)c2nc(C(=O)Nc3cnoc3)c(O)c(=O)n2C)c1 [Example 77] | 0.1 to 1 µM
* CN(Cc1ccc(Cl)cc1)c1nc(C(=O)Nc2cnoc2)c(O)c(=O)n1C [Example 9] | < 0.1 µM
* CC(=O)N1CCC(N(C)c2nc(C(=O)Nc3cnoc3)c(O)c(=O)n2C)CC1 [Example 73] | 0.1 to 1 µM
* CN(Cc1ccccc1-c1ccccc1)c1nc(C(=O)Nc2cnoc2)c(O)c(=O)n1C [Example 18] | < 0.1 µM

Summary: CN(C)C(=O)c1ccc(C(c2ccccc2)N(C)c2nc(C(=O)Nc3cnoc3)c(O)c(=O)n2C)c(Cl)c1 (single isomer, unassigned) [Example 93] , full length human TREX1 (Homo sapiens), IC50 = < 0.1 µM

Tested on full length human TREX1 (Homo sapiens): CN(Cc1ccc(Cl)c(Cl)c1)c1nc(C(=O)Nc2cnoc2)c(O)c(=O)n1C [Example 7] . Observed IC50: < 0.1 µM

Summary: CN(c1nc(C(=O)Nc2cnoc2)c(O)c(=O)n1C)C(c1ccccc1)c1ccccc1Cl (single isomer, unassigned) [Example 40] , full length human TREX1 (Homo sapiens), IC50 = < 0.1 µM

----------
The following molecules are shown together with reported IC50 values.
- SYSTEM_UNDER_TEST: full length human TREX1 (Homo sapiens, UniProt Q9NSU2)
- Construct: N-terminally His-Tev tagged full length human TREX1; His-TEV (His tag with TEV site) (N)
- Sequence (Q9NSU2 1-314): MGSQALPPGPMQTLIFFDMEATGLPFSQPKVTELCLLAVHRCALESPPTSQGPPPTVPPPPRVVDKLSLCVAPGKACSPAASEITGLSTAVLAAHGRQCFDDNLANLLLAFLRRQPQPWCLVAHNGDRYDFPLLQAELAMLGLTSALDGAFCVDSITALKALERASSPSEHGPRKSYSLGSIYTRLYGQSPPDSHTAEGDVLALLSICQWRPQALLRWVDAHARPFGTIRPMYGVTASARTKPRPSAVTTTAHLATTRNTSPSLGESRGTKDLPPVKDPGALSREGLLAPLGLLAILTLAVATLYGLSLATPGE
- MEASUREMENT_PROTOCOL: TREX1 Biochemical Assay (fluorescence, dsDNA substrate degradation)
- CONDITION_LABEL: 150 pM TREX1, 60 nM dsDNA substrate, 25 minutes at room temperature

Observe how each entry below is paired with its result.
- CN(c1nc(C(=O)Nc2cnoc2)c(O)c(=O)n1C)C(c1ccccc1)c1cc(F)ccc1Cl (single isomer, unassigned) [Example 87]: < 100 nM
- CN(Cc1ccccc1)c1nc(C(=O)Nc2cnoc2)c(O)c(=O)n1C [Example 2]: < 100 nM
- CN(Cc1cc(Cl)ccc1Cl)c1nc(C(=O)Nc2cnoc2)c(O)c(=O)n1C [Example 5]: < 100 nM

Item CN(Cc1ccc(C(F)(F)F)cc1)c1nc(C(=O)Nc2cnoc2)c(O)c(=O)n1C [Example 12] was tested on full length human TREX1 (Homo sapiens, UniProt Q9NSU2); the reported IC50 is 100 to 1000 nM

// returns IC50 for CN(Cc1cccc2ccccc12)c1nc(C(=O)Nc2cnoc2)c(O)c(=O)n1C [Example 15] with full length human TREX1 (Homo sapiens, UniProt Q9NSU2); value = < 100 nM
